Test system: U251 CNS
Experiment: NCI tumour cell line growth inhibition, 48 h
Readout: TGI

COC(=O)C1=COC2OC3C(C(C)O)C(=O)OC34C=CC1C24 (stereo not drawn); > 100 µM
CCOC(=O)c1nc2ccc(OC)cc2c2c1Cc1ccccc1-2; > 100 µM

// moving on: another record for TGI
I would be grateful if you could share the reported TGI for COc1ccc2c(c1)CC[C@@H]1C2CC[C@]2(C)C(=O)N(CCN(C)C)C(=O)CC12 (stereo partly drawn) .
> 100 µM

====

Test system: SNB-75 CNS
Assay: NCI tumour cell line growth inhibition, 48 h; in the data active means GI50 below about 0.43 µM; inactive means the rest
Could you please pick one outcome from this set? active, inactive

Reference set, count: 5
CCC(C)(C)c1cc(O)c(C(C)(C)CC)cc1O; inactive
O=[N+]([O-])c1ccc(/C=C/c2nc3ccc(Cl)cc3[nH]2)cc1; inactive
COc1cc(-c2cc3ncccc3c3nc(OCCN(C)C)c4cccnc4c23)cc(OC)c1OC; active
CC(c1cc(Cl)ccc1O)c1cc(Cl)ccc1O; inactive
COc1cc(OC)cc(Oc2cnc3cc(N)cc(N)c3n2)c1; inactive

Answer briefly: the call reported for O=C(c1ccccc1)C(Cl)C(Cl)c1ccccc1 (stereo unspecified) in this assay.
inactive
